Values were extracted from ChEMBL document CHEMBL5442219.

target: Sigma intracellular receptor 2 (Homo sapiens) (UniProt Q5BJF2)
Sequence (Q5BJF2 whole entry): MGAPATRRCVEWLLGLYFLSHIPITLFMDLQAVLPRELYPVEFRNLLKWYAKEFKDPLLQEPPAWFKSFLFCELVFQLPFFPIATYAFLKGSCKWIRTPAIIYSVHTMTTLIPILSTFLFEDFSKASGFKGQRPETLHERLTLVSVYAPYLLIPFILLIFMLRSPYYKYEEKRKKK
study conditions: Compound concentration 10 µM
molecules and their reported inhibition

Take a look at these entries with their results.
>>> result("N=C(N)SCCc1c[nH]cn1")
"13.8%"
>>> result("NC[C@@H]1O[C@H](C23CC4CC(CC(C4)C2)C3)Cc2c1ccc(O)c2O")
"81.7%"
>>> result("OC[C@H]1O[C@@H](n2cnc3c(NC4CCCC4)ncnc32)[C@H](O)[C@@H]1O")
"14.2%"
>>> result("CN1CCN(c2ccc(Nc3c4ccccc4nc4ccccc34)cc2)CC1")
"70.8%"
>>> result("Cc1ccccc1N1CCN(S(=O)(=O)C[C@]23CC[C@H](C[C@@H]2NC(=O)[C@@H](N)CCS(C)(=O)=O)C3(C)C)CC1")
"85%"
>>> result("C=CCN1C[C@H](C)N([C@H](c2ccc(C(=O)N(CC)CC)cc2)c2cccc(O)c2)C[C@H]1C")
"46.7%"

Which inhibition is listed for `COc1ccc(NS(=O)(=O)c2sc3ccc(Cl)cc3c2C)cc1N1CCNCC1` ?
81.8%

Which inhibition is listed for CCOC(=O)c1c(C)[nH]c2ccc3c(c12)CN1CCc2cc(OC)ccc2C1O3 (centres undefined) ?
36.3%

Which inhibition is listed for `CC(C)Oc1ccccc1C(=O)Nc1ccccc1C(=O)Nc1cccc(S(=O)(=O)C(F)(F)F)c1` ?
-6.23%

###

target: UniProt:P47898
Sequence (P47898 whole entry): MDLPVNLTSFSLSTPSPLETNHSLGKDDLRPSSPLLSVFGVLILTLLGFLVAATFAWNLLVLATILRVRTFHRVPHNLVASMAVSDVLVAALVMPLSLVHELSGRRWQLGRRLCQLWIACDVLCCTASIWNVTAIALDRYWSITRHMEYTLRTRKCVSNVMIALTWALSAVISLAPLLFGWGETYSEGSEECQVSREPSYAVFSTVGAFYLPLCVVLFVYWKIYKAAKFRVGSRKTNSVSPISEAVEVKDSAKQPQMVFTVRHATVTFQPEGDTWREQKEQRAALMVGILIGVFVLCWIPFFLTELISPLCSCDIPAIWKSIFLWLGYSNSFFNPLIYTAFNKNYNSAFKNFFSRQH
study conditions: Compound concentration 10 µM
Lab note: compare inhibition against 20%. Equal or greater, write criterion met. Smaller, write criterion not met.

Would you say CN1C2CCC1CC(OC(c1ccc(F)cc1)c1ccc(F)cc1)C2 (centres undefined) shows inhibition at minimum 20%?
criterion met

Would you say `C[C@H](NC[C@H](O)CP(=O)(O)CC1CCCCC1)c1ccc(Cl)c(Cl)c1` shows inhibition at minimum 20%?
criterion not met

Would you say `O=C(Cc1ccccc1)Nc1nc2ccc(Cl)cc2c2nc(-c3ccco3)nn12` shows inhibition at minimum 20%?
criterion not met

Would you say `Cc1cn2cc(CC(=O)N3CCC4(CC3)CN(Cc3ccc(-n5nccn5)cc3Cl)C4)nc2s1` shows inhibition at minimum 20%?
criterion not met

Would you say `N#Cc1c[nH]c2c(C(=O)N3CCN(CCc4ccc(F)cc4)CC3)cccc12` shows inhibition at minimum 20%?
criterion not met

###

target: Histamine H4 receptor (Homo sapiens) (UniProt Q9H3N8)
Sequence (Q9H3N8 whole entry): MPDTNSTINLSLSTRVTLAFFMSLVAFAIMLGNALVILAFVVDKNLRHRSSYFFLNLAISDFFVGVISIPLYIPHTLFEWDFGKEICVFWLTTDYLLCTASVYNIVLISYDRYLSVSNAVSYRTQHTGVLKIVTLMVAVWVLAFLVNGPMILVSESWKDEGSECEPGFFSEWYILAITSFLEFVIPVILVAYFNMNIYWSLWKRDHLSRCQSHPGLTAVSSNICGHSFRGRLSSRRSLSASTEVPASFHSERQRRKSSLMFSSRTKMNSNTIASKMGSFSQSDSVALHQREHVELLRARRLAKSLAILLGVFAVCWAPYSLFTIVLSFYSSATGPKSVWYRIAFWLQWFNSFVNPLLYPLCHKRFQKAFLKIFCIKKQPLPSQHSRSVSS
study conditions: Compound concentration 10 µM
compounds and their reported inhibition
Unit % implied. Number only.

Take a look at these entries with their results.
>>> measured_number("CC(C)NCC(O)c1ccc(N)c(C#N)c1 (stereo unspecified)")
0.52
>>> measured_number("O=S1(=O)c2cccc3cccc(c23)N1CCCN1CCN(c2ccc(F)cc2)CC1")
5.54

Hi! What's the reported inhibition for `Cc1csc2c(N[C@@H](C)CN3CCN(S(=O)(=O)c4ccc(Cl)c(Cl)c4)CC3)ncnc12` on Histamine H4 receptor (Homo sapiens) (UniProt Q9H3N8)?
9.69

Hi! What's the reported inhibition for `CC(C)[C@H](CO)Nc1nc(Nc2cccc(Cl)c2)c2ncn(C(C)C)c2n1` on Histamine H4 receptor (Homo sapiens) (UniProt Q9H3N8)?
11.2

Hi! What's the reported inhibition for `Cc1c(P(=S)(c2ccccc2)c2ccccc2)n2ccccc2[n+]1C/C=C/c1ccccc1` on Histamine H4 receptor (Homo sapiens) (UniProt Q9H3N8)?
31

Hi! What's the reported inhibition for `FC(F)(F)c1c(N2CCC(c3ccccc3)CC2)ccn2c(CC3CC3)nnc12` on Histamine H4 receptor (Homo sapiens) (UniProt Q9H3N8)?
-1.74
